Test system: NCBI gene 447152
Procedure details: CCTE_GLTED_xIYD: CCTE's Xenopus Iodotyrosine Deiodinase (xIYD) Inhibition Assay, Great Lakes Toxicology and Ecology Division (GLTED) Lab
Active and inactive are the calls of the source. The calls were made as follows: active = hit-call score of the fitted dose curve at least 0.9, where 1 is the maximum; inactive = score below 0.9.
Outcome codes: YES = active, NO = inactive

{"Smiles repr": "O=C(O)C(F)(F)OC(F)(F)C(F)(F)OC(F)(F)C(F)(F)OC(F)(F)C(F)(F)C(F)(F)C(F)(F)F", "Class label": "YES"}
{"Smiles repr": "O=C(Cl)C(F)(F)C(F)(F)C(F)(F)C(F)(F)C(F)(F)C(F)(F)C(F)(F)C(F)(F)F", "Class label": "NO"}
{"Smiles repr": "O=S(=O)(O)C(F)(F)C(F)(F)C(F)(F)C(F)(F)C(F)(F)C(F)(F)C(F)(F)F", "Class label": "YES"}
{"Smiles repr": "O=C(O)C(F)(F)C(F)(F)C(F)(F)C(F)(F)C(F)(F)C(F)(F)C(F)(F)C(F)(F)Cl", "Class label": "YES"}
